conditions: in methanol, 289.65 K
QUANTITY_NAME: solubility (mole fraction)
The response must contain the number and no unit.

Quick one: solubility (mole fraction) for CN=C(NC#N)NCCSCc1nc[nH]c1C ?
0.0119

* * *

settings: in n-octanol, 291.53 K
QUANTITY_NAME: solubility (mole fraction)
Write the value as a bare number.

Fill blank: measured solubility (mole fraction) of the molecule CC(=O)Oc1ccccc1C(=O)O is ____.
0.0235

* * *

settings: in n-octanol, 272.14 K
QUANTITY_NAME: solubility (mole fraction)

Reported solubility (mole fraction), compound CC(=O)Oc1ccccc1C(=O)O : ____
0.01

* * *

conditions: in isopropanol, 289.99 K
QUANTITY_NAME: solubility (mole fraction)
Format: numeric value only, no unit, no commentary.

Fill blank: measured solubility (mole fraction) of the compound CC(=O)Nc1ccc(O)cc1 is ____.
0.0372

* * *

details: in methanol, 296.7 K
QUANTITY_NAME: solubility (mole fraction)
Field format: numeric only.

Entry under review: CN=C(NC#N)NCCSCc1nc[nH]c1C . Reported solubility (mole fraction)?
0.0166

* * *

conditions: in ethanol, 284.49 K
QUANTITY_NAME: solubility (mole fraction)
Give a plain numeric answer without units written out.

// solubility (mole fraction) lookup, key: CC(=O)Nc1ccc(O)cc1
0.0444

* * *

details: in isopropanol, 283.75 K
QUANTITY_NAME: solubility (mole fraction)
Format: numeric value only, no unit, no commentary.

Recorded solubility (mole fraction) of CC(=O)Oc1ccccc1C(=O)O , please.
0.0245

* * *

conditions: in ethanol, 292.45 K
QUANTITY_NAME: solubility (mole fraction)
Simply state the number, no unit and no words.

Give the measured solubility (mole fraction) of CC(=O)Oc1ccccc1C(=O)O .
0.0487

* * *

settings: in isopropanol, 302.5 K
QUANTITY_NAME: solubility (mole fraction)
Answer using only a numeral; do not append any unit.

Recorded solubility (mole fraction) of CC(=O)Nc1ccc(O)cc1 , please.
0.0473

* * *

settings: in isopropanol, 274.9 K
QUANTITY_NAME: solubility (mole fraction)

// query solubility (mole fraction) value for entry CC(=O)Oc1ccccc1C(=O)O
0.0163

* * *

settings: in n-octanol, 301.15 K
QUANTITY_NAME: solubility (mole fraction)
The response must contain the number and no unit.

Item CC(=O)Nc1ccc(O)cc1 has what recorded solubility (mole fraction)?
0.0151

* * *

details: in n-octanol, 275.42 K
QUANTITY_NAME: solubility (mole fraction)
Answer using only a numeral; do not append any unit.

Dear colleague, I am looking for the recorded solubility (mole fraction) of the following molecule: CC(=O)Nc1ccc(O)cc1
0.0082

* * *

details: in methanol, 285.25 K
QUANTITY_NAME: solubility (mole fraction)
When you answer, write just the number.

Suppose we examine the compound CN=C(NC#N)NCCSCc1nc[nH]c1C ; what solubility (mole fraction) value has been reported?
0.0098

* * *

conditions: in ethanol, 297.26 K
QUANTITY_NAME: solubility (mole fraction)

Fill blank: measured solubility (mole fraction) of the compound CN=C(NC#N)NCCSCc1nc[nH]c1C is ____.
0.005

* * *

settings: in n-octanol, 281.45 K
QUANTITY_NAME: solubility (mole fraction)

Quick one: solubility (mole fraction) of CC(=O)Oc1ccccc1C(=O)O ?
0.0152

* * *

conditions: in ethanol, 288.38 K
QUANTITY_NAME: solubility (mole fraction)

Fill blank: measured solubility (mole fraction) of the molecule CC(=O)Nc1ccc(O)cc1 is ____.
0.0471

* * *

conditions: in isopropanol, 273.5 K
QUANTITY_NAME: solubility (mole fraction)
# print the numeric value only

May I ask what solubility (mole fraction) has been recorded for CC(=O)Nc1ccc(O)cc1 ?
0.0256
